# Kd annotations
Target: T1, human BACE1 ECD
T1 construct: analyte of the Octet assay (200 nM) and enzyme of the first short substrate assay; also called human BACE1 extracellular domain
T1 sequence (single chain, as listed by the source limits assumed): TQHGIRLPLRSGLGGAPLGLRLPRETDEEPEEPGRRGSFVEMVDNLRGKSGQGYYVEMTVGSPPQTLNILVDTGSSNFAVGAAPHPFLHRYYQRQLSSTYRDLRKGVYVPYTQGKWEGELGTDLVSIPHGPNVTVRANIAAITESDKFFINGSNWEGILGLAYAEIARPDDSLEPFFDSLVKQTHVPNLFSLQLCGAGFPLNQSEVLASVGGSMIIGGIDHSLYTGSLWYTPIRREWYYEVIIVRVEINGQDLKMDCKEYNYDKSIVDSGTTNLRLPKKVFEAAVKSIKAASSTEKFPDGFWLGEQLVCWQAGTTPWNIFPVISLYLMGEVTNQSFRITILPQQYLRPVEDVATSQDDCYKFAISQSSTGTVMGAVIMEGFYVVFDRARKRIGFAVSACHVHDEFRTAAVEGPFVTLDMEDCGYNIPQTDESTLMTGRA
Assay: Octet, pH 7.5;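 further: antibodies captured on anti-human capture biosensor tips, dissociation followed in PBS with BSA buffer, kinetics fitted with a one-to-one binding model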
Only the number, expressed in pM, is required.

Here's what some known entries look like.
>>> endpoint_value("5932 (antibody, V domains shown, anti-BACE1 IgG) VH: QLQLQESGPGLVKPSETLSLTCTVSGGSISRGSYYWGWIRQPPGKGLEWIGMIYYSGSTWYNPSLKSRVTISVDTSKNQFSLKLSSVTAADTAVYYCARVGHGISYFDLWGRGTLVTVSS VL: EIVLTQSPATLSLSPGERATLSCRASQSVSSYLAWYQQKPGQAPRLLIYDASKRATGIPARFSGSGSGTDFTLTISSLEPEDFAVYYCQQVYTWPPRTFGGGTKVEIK")
310
>>> endpoint_value("5891 (antibody, V domains shown, anti-BACE1 IgG) VH: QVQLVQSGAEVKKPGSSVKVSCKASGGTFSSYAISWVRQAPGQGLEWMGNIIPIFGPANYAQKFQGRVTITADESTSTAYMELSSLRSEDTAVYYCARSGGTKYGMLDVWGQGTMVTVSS VL: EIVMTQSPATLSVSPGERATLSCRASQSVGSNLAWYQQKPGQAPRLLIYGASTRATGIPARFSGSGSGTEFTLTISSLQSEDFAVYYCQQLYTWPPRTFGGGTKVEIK")
650

INPUT: Form field: reported Kd of 5986 (antibody, V domains shown, anti-BACE1 IgG) VH: QLQLQESGPGLVKPSETLSLTCTVSGGSISSSSYYWGWIRQPPGKGLEWIGQIYYSGSTFYNPSLKSRVTISVDTSKNQFSLKLSSVTAADTAVYYCARLGHGYSYFDLWGRGTLVTVSS VL: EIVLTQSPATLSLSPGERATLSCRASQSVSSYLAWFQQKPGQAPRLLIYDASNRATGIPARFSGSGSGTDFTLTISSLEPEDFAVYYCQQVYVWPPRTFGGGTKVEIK
OUTPUT: 780

INPUT: Consider next the binder 5933 (antibody, V domains shown, anti-BACE1 IgG) VH: QLQLQESGPGLVKPSETLSLTCTVSGGSISRGSYYWGWIRQPPGKGLEWIGMIYYSGSTWYNPSLKSRVTISVDTSKNQFSLKLSSVTAADTAVYYCARVGHGVSYFDLWGRGTLVTVSS VL: EIVLTQSPATLSLSPGERATLSCRASQSVSSYLAWYQQKPGQAPRLLIYGASKRATGIPARFSGSGSGTDFTLTISSLEPEDFAVYYCQQVYTWPPRTFGGGTKVEIK in the same way.
OUTPUT: 320

INPUT: Consider next the binder 5982 (antibody, V domains shown, anti-BACE1 IgG) VH: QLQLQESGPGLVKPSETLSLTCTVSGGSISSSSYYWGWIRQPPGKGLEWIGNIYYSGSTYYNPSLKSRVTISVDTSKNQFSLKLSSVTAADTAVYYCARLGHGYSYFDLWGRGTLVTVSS VL: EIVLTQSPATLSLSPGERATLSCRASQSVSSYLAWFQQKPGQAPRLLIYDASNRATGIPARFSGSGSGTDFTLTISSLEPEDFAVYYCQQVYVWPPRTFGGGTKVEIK in the same way.
OUTPUT: 2900

INPUT: Consider next the binder 5892 (antibody, V domains shown, anti-BACE1 IgG) VH: QVQLVQSGAEVKKPGSSVKVSCKASGGTFSSYAISWVRQAPGQGLEWMGNIIPIFGTATYAQKFQGRVTITADESTSTAYMELSSLRSEDTAVYYCARSGGTKYGMLDVWGQGTMVTVSS VL: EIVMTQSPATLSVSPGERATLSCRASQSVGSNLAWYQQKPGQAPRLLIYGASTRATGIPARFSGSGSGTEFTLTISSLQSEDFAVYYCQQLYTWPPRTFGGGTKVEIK in the same way.
OUTPUT: 880
